meta.source: ChEMBL document CHEMBL1128603

Catalogue of compounds with associated log10 Ki
# Target Of Assay: Delta-type opioid receptor (Rattus norvegicus, UniProt P33533)
# Sequence (P33533 whole entry): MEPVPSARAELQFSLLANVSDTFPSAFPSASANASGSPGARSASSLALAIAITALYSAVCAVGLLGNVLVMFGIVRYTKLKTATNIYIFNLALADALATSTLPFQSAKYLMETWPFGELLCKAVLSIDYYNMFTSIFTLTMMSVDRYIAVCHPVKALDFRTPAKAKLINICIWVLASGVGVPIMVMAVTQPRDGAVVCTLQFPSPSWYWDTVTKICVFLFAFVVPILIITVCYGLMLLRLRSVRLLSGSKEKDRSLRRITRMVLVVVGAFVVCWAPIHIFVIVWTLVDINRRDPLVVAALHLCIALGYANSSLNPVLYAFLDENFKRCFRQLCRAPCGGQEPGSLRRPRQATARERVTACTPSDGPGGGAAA
# Procedure Text: Inhibition of [3H]-DADLE binding to rat brain delta receptor
Starred links: 1 amine or outer side, 2 acyl side, 3 side chain; linkers in the order of their positions; H or OH if unused. Non-standard residues stand in square brackets, D forms with d. Residues, ends and D or L forms follow the SMILES beside them. X1 = CSCC[C@H](CN([C@@H](Cc1ccccc1)C(=O)[*:2])[*:1])N[*:3]; Tle = CC(C)(C)[C@H](N)C(=O)O; NBuGly = CCCCNCC(=O)O
Result Type: log10 Ki (log10 of the value in pM)

INSERT INTO measurements (compound, reading) VALUES
  ('CCCCN(CC(=O)N[C@@H](CC(=O)O)C(N)=O)C(=O)[C@@H](NC(=O)[C@H](Cc1cnc[nH]1)NC(=O)[C@H](Cc1ccccc1)NC[C@@H](CCSC)NC(=O)[C@@H](N)Cc1ccc(O)cc1)C(C)(C)C (H-[X1](Tyr)H[Tle][NBuGly]D-NH2)', 3.41),
  ('CSCC[C@@H](NC(=O)[C@@H](N)Cc1ccc(O)cc1)C(=O)N[C@@H](Cc1ccccc1)C(=O)N[C@@H](Cc1c[nH]cn1)C(=O)N[C@@H](CC(C)C)C(=O)N[C@H](C(=O)N[C@@H](CC(=O)O)C(N)=O)C(C)(C)C', 2.66),
  ('CSCC[C@H](NC(=O)[C@@H](NC(=O)[C@H](Cc1c[nH]cn1)NC(=O)[C@H](Cc1ccccc1)NC(=O)[C@@H](CCSC)NC(=O)[C@@H](N)Cc1ccc(O)cc1)C(C)(C)C)C(=O)N[C@@H](CC(=O)O)C(N)=O', 3.98),
  ('CC[C@H](C)N(CC(=O)N[C@@H](CC(=O)O)C(N)=O)C(=O)[C@H](CC(C)C)NC(=O)[C@H](Cc1c[nH]cn1)NC(=O)[C@H](Cc1ccccc1)NC(=O)[C@@H](CCSC)NC(=O)[C@@H](N)Cc1ccc(O)cc1 (stereo in doubt; 6a)', 2.00),
  ('CSCC[C@@H](NC(=O)[C@@H](N)Cc1ccc(O)cc1)C(=O)N[C@@H](Cc1ccccc1)C(=O)N[C@@H](Cc1c[nH]cn1)C(=O)N[C@@H](CC(C)C)C(=O)N(CC(=O)N[C@@H](CC(=O)O)C(N)=O)CC(C)C', 2.93),
  ('CCCCN(CC(=O)N[C@@H](CC(=O)O)C(N)=O)C(=O)[C@H](CC(C)C)NC(=O)[C@H](Cc1cnc[nH]1)NC(=O)[C@H](Cc1ccccc1)NC[C@@H](CCSC)NC(=O)[C@@H](N)Cc1ccc(O)cc1 (H-[X1](Tyr)HL[NBuGly]D-NH2)', 3.28),
  ('CSCC[C@H](NC(=O)[C@H](C)NC(=O)[C@H](Cc1c[nH]cn1)NC(=O)[C@H](Cc1ccccc1)NC(=O)[C@@H](CCSC)NC(=O)[C@@H](N)Cc1ccc(O)cc1)C(=O)N[C@@H](CC(=O)O)C(N)=O', 3.23),
  ('CCCCN(CC(=O)N[C@@H](CC(=O)O)C(N)=O)C(=O)[C@@H](NC(=O)[C@H](Cc1c[nH]cn1)NC(=O)[C@H](Cc1ccccc1)NC(=O)[C@@H](CCSC)NC(=O)[C@@H](N)Cc1ccc(O)cc1)C(C)(C)C', 4.09),
  ('CC[C@H](C)N(CC(=O)N[C@@H](CC(=O)O)C(N)=O)C(=O)[C@H](CC(C)C)NC(=O)[C@H](Cc1c[nH]cn1)NC(=O)[C@H](Cc1ccccc1)NC(=O)[C@@H](CCSC)NC(=O)[C@@H](N)Cc1ccc(O)cc1 (stereo in doubt; 6b)', 1.95),
  ('CSCC[C@H](NC(=O)[C@H](CC(C)C)NC(=O)[C@H](Cc1cnc[nH]1)NC(=O)[C@H](Cc1ccccc1)NC(=O)[C@@H](CCSC)NC(=O)[C@@H](N)Cc1ccc(O)cc1)C(=O)N[C@@H](CC(=O)O)C(N)=O (H-Y[dM]FHLMD-NH2)', 2.28),
  ('CCCCN(CC(=O)N[C@@H](CC(=O)O)C(N)=O)C(=O)[C@H](CC(C)C)NC(=O)[C@H](Cc1c[nH]cn1)NC(=O)[C@H](Cc1ccccc1)NC(=O)[C@@H](CCSC)NC(=O)[C@@H](N)Cc1ccc(O)cc1', 1.60);
